// read-out pIC50, gathered for Carbonic anhydrase 2 (Bos taurus) from published studies
One number for each entry, as −log10 of the molar value.

// worked examples, pIC50 included
1. CCOC(=O)NC(=S)Nc1ccc(C(c2c[nH]c3ccc(Cl)cc23)c2c[nH]c3ccc(Cl)cc23)cc1 3.86
2. O=S(=O)(Nc1ccc(C(c2c[nH]c3ccc(Cl)cc23)c2c[nH]c3ccc(Cl)cc23)cc1)c1ccc(Cl)cc1 4.34
3. O=C(N/N=C/c1cc([N+](=O)[O-])ccc1Cl)N/N=C/c1cc([N+](=O)[O-])ccc1Cl 5.86
4. O=C(N/N=C/c1ccc(Cl)cc1Cl)N/N=C/c1ccc(Cl)cc1Cl 5.57
5. O=[N+]([O-])c1ccc(NC(=S)Nc2ccc(C(c3c[nH]c4ccc(Cl)cc34)c3c[nH]c4ccc(Cl)cc34)cc2)cc1 4.40

// each listed compound needs a value for pIC50
1. O=[N+]([O-])c1ccccc1S(=O)(=O)Nc1ccc(C(c2c[nH]c3ccc(Br)cc23)c2c[nH]c3ccc(Br)cc23)cc1
2. S=C(Nc1ccc(C(c2c[nH]c3ccccc23)c2c[nH]c3ccccc23)cc1)Nc1cc(Cl)ccc1Cl
3. Cc1cccc2c(C(c3ccc(NC(=S)Nc4ccc([N+](=O)[O-])cc4)cc3)c3c[nH]c4c(C)cccc34)c[nH]c12
4. O=[N+]([O-])c1ccc(NC(=S)Nc2ccc(C(c3c[nH]c4ccccc34)c3c[nH]c4ccccc34)cc2)cc1
5. S=C(Nc1ccc(C(c2c[nH]c3ccc(Br)cc23)c2c[nH]c3ccc(Br)cc23)cc1)Nc1cccc(Br)c1

[4.19, 4.17, 4.36, 4.34, 4.52]
